# ASSAY SUMMARY: Clearance in rat at 10 mg/kg, po or 2 mg/kg, iv
# Format: ADME, organism-based
# STATED CONDITIONS: in vivo
PROPERTY LABEL: clearance (mL/min/kg)

MOLECULE: CC12CC(=O)Nc3cccc(c31)N(Cc1ccc3cc4c(cc3n1)C[C@@]1(C4)C(=O)Nc3ncccc31)C2 (some centres not stated)
PROPERTY LABEL: clearance
REPORTED MEASUREMENT: 28

MOLECULE: CN1C(=O)NC(=O)[C@@]12Cc1cc3ccc(CN4CC5(C)CC(=O)Nc6cccc4c65)nc3cc1C2 (some centres not stated)
PROPERTY LABEL: clearance
REPORTED MEASUREMENT: 14

MOLECULE: CCC12CC(=O)Nc3cccc(c31)N(Cc1ccc3cc4c(cc3n1)C[C@@]1(C4)C(=O)Nc3ncccc31)C2 (some centres not stated)
PROPERTY LABEL: clearance
REPORTED MEASUREMENT: 11

a. CN1C(=O)NC(=O)[C@@]12Cc1cc3ccc(CN4C(=O)CCc5ccccc54)nc3cc1C2
b. CN1C(=O)NC(=O)[C@@]12Cc1cc3ccc(CN4CC5CC(=O)Nc6cccc4c65)nc3cc1C2 (some centres not stated)
c. O=C1CCc2ccccc2N1Cc1ccc2cc3c(cc2n1)C[C@@]1(C3)C(=O)Nc2ncccc21
stdin: Kindly order the items shown according to clearance, from the highest value down. Ranked list of labels, please, in the requested order.
stdout: c, a, b

----------
# ASSAY SUMMARY: Half life in rat at 2mg/kg, iv
# Type: ADME, organism-based
# STATED CONDITIONS: in vivo
PROPERTY LABEL: half-life (h)
The answer is to be given in h; state only the numeric part.

For record CN1C(=O)NC(=O)[C@@]12Cc1cc3ccc(CN4CC5(C)CC(=O)Nc6cccc4c65)nc3cc1C2 (stereo partly specified) the listed half-life is 1.6
